Target: LXR beta (Homo sapiens, UniProt P55055)
Construct: 5 μL of 4×LXR beta-LBD was added to each well (final concentration 5 nM)
Sequence (P55055 222-460 limits assumed): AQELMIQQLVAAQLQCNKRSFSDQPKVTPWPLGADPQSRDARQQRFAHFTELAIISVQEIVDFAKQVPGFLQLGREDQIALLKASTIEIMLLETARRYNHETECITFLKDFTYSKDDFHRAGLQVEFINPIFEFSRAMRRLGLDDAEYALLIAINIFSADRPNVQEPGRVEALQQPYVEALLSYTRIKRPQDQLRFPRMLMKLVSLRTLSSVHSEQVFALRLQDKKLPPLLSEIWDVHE
Test: LXR beta agonist assay (Lanthascreen TR-FRET)
Details: LXR beta-LBD 5 nM, read-out: LXR-β EC50
// NB: equality with 1000 nM counts as Condition not met; only EC50 strictly below is Condition met

O=C(N1CCC(C2CCN(c3cc(Cl)c4c(=O)[nH]ccc4c3)CC2)CC1)[C@](O)(c1ccccc1)C(F)(F)F [Compound 1.19] | Condition met
CC1CN(S(=O)(=O)c2ccccc2Cl)CCN1c1nnc(-c2ccc(C(=O)N(C)C)c(F)c2)s1 (stereo not shown) [Compound 1.82] | Condition not met

Incoming: Given CN(C)C(=O)c1ccc(-c2nnc(C3=CCN(S(=O)(=O)c4cc(Cl)ccc4Cl)CC3)s2)cc1Cl [Compound 1.61] , is recorded EC50 strictly lower than 1000 nM?
Outgoing: Condition not met

Incoming: Given CC(C)C(O)(C(=O)N1CCC(N2CC(Nc3ccc(C(=O)N(C)C)c(Cl)c3)C2)CC1)C(F)(F)F (stereo not shown) [Compound 1.43] , is recorded EC50 strictly lower than 1000 nM?
Outgoing: Condition not met

Incoming: Given CN(C)C(=O)c1ccc(-c2nnc(C3=CCN(S(=O)(=O)c4ccccc4Cl)CC3)s2)cc1Cl [Compound 1.12] , is recorded EC50 strictly lower than 1000 nM?
Outgoing: Condition met

Incoming: Given CC1CN(c2nnc(-c3ccc(C(=O)N(C)C)c(Cl)c3)s2)CCN1S(=O)(=O)c1ccccc1Cl (stereo not shown) [Compound 1.83] , is recorded EC50 strictly lower than 1000 nM?
Outgoing: Condition not met

Incoming: Given CN(C)C(=O)c1ccc(-c2nnc(C3CCN(S(=O)(=O)c4ccccc4Cl)CC3)s2)cc1Cl [Compound 1.11] , is recorded EC50 strictly lower than 1000 nM?
Outgoing: Condition not met

Incoming: Given O=C(c1ccc(NC2CN(C3CCN(C(=O)[C@@](O)(c4ccccc4)C(F)(F)F)CC3)C2)cc1Cl)N1CCCC1 (single isomer, unassigned) [Compound 1.99] , is recorded EC50 strictly lower than 1000 nM?
Outgoing: Condition not met

Incoming: Given CN(C)C(=O)c1ccc(N[C@H]2CCCN(C3CCN(C(=O)[C@](O)(c4ccccc4)C(F)(F)F)CC3)C2)cc1Cl [Compound 1.53] , is recorded EC50 strictly lower than 1000 nM?
Outgoing: Condition not met

Incoming: Given CN(C)C(=O)c1ccc(NC2CN(C3CCN(C(=O)C(O)(c4ccccc4)C(F)(F)F)CC3)C2)cc1Cl (stereo not shown) [Compound 1.3] , is recorded EC50 strictly lower than 1000 nM?
Outgoing: Condition not met

Incoming: Given CN(C)C(=O)c1ccc(N2CC3(CCN(C4CCN(C(=O)[C@](O)(c5ccccc5)C(F)(F)F)CC4)CC3)C2)cc1Cl [Compound 1.75] , is recorded EC50 strictly lower than 1000 nM?
Outgoing: Condition not met

Incoming: Given CC(C)[C@@](O)(C(=O)N1CCC2(CC1)CN(C1CCN(c3ccc(C(=O)N(C)C)c(Cl)c3)CC1)C2)C(F)(F)F (single isomer, unassigned) [Compound 1.73] , is recorded EC50 strictly lower than 1000 nM?
Outgoing: Condition not met

Incoming: Given O=C(c1ccc(NC2CN(C3CCN(C(=O)C(O)(c4cccc(Cl)c4)C(F)(F)F)CC3)C2)cc1Cl)N1CC(F)(F)C1 (stereo not shown) [Compound 1.131] , is recorded EC50 strictly lower than 1000 nM?
Outgoing: Condition not met

Entry source: patent US20220363662A1
